# System: human Factor XI mRNA
# EXPERIMENTAL DETAILS: Dose-dependent inhibition in HepG2 cells, electroporation (Example 5)
# Type: cell-based
# MEASUREMENT CONTEXT: 20000 nM, approx. 16 h, relative to untreated control cells
MEASURE: percent inhibition of human Factor XI mRNA (%)
Numeric answer only, unit % assumed.

{"SUBSTANCE": "417002 (antisense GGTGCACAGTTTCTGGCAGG; 2-13-5 gapmer, wing sugar chemistry not given here, further chemistry not given here) [compound 417002]", "UNIT SPEC": "%", "REPORTED VALUE": 96}
{"SUBSTANCE": "416892 (antisense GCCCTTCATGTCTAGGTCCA; 3-14-3 chimeric gapmer, wing sugar chemistry not given here, further chemistry not given here) [compound 416892]", "UNIT SPEC": "%", "REPORTED VALUE": 100}
{"SUBSTANCE": "416838 (antisense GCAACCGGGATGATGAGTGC; 5-10-5 gapmer, wing sugar chemistry not given here, further chemistry not given here) [compound 416838]", "UNIT SPEC": "%", "REPORTED VALUE": 96}
{"SUBSTANCE": "416925 (antisense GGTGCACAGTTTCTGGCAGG; 3-14-3 chimeric gapmer, wing sugar chemistry not given here, further chemistry not given here) [compound 416925]", "UNIT SPEC": "%", "REPORTED VALUE": 96}
{"SUBSTANCE": "416825 (antisense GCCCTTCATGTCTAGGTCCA; 5-10-5 gapmer, wing sugar chemistry not given here, further chemistry not given here) [compound 416825]", "UNIT SPEC": "%", "REPORTED VALUE": 97}

stdin: If you can, please state the reported percent inhibition of human Factor XI mRNA value of 417003 (antisense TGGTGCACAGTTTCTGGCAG; 2-13-5 gapmer, wing sugar chemistry not given here, further chemistry not given here) [compound 417003] .
stdout: 95

----------
# Test system: human Factor XI mRNA
# EXPERIMENTAL DETAILS: Dose-dependent inhibition in HepB3 cells, lipofectin (Example 7)
# Format: cell-based
# MEASUREMENT CONTEXT: 37.5 nM, approx. 16 h
percent inhibition of human Factor XI mRNA reference
Numeric answer only, unit % assumed.

Some substances with known percent inhibition of human Factor XI mRNA results, for comparison:
{"SUBSTANCE": "416925 (antisense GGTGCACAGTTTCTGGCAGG; 3-14-3 chimeric gapmer, wing sugar chemistry not given here, further chemistry not given here) [compound 416925]", "REPORTED VALUE": 72}
{"SUBSTANCE": "417003 (antisense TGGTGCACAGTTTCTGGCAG; 2-13-5 gapmer, wing sugar chemistry not given here, further chemistry not given here) [compound 417003]", "REPORTED VALUE": 63}

stdin: If you can, please state the reported percent inhibition of human Factor XI mRNA value of 416825 (antisense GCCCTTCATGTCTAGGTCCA; 5-10-5 gapmer, wing sugar chemistry not given here, further chemistry not given here) [compound 416825] .
stdout: 53

----------
Bilirubin reference
# EXPERIMENTAL DETAILS: Tolerability in Sprague-Dawley rats: liver function (Example 23)
# Type: in vivo
# MEASUREMENT CONTEXT: plasma, 50 mg/kg s.c. twice per week for 6 weeks
Numeric answer only, unit mg/dL assumed.

{"SEQ STRING": "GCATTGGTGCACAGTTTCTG (antisense; all C 5-methyl, all phosphorothioate, sugars by position not given here; MOE gapmer, 5-10-5) [ISIS 412224, 5-10-5 MOE gapmer]", "UNIT SPEC": "mg/dL", "Bilirubin": 0.12}
{"SEQ STRING": "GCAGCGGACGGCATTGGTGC (antisense; all C 5-methyl, all phosphorothioate, sugars by position not given here; MOE gapmer, 5-10-5) [ISIS 412225, 5-10-5 MOE gapmer]", "UNIT SPEC": "mg/dL", "Bilirubin": 0.15}
{"SEQ STRING": "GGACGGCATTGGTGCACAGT (antisense; all C 5-methyl, all phosphorothioate, sugars by position not given here; MOE gapmer, 5-10-5) [ISIS 413482, 5-10-5 MOE gapmer]", "UNIT SPEC": "mg/dL", "Bilirubin": 0.14}

stdin: If you can, please state the reported Bilirubin value of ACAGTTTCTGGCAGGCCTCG (antisense; all C 5-methyl, all phosphorothioate, sugars by position not given here; MOE gapmer, 5-10-5) [ISIS 412223, 5-10-5 MOE gapmer] .
stdout: 0.14

stdin: If you can, please state the reported Bilirubin value of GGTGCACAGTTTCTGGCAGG (all C 5-methyl, all phosphorothioate, sugars by position not given here; MOE gapmer) [ISIS 413481, 5-10-5 MOE gapmer] .
stdout: 0.22

----------
# System: human Factor XI mRNA
# EXPERIMENTAL DETAILS: Dose-dependent inhibition in HepG2 cells, lipofectin (Example 4)
# Format: cell-based
# MEASUREMENT CONTEXT: 37.5 nM, 16 hours
In the oligonucleotide strings, read from the 5' end, every base follows the letter of its sugar. An asterisk marks phosphorothioate; unmarked linkages are phosphodiester. Other units and linkages are bracketed, terminal groups are in braces. A string of capitals states the bases alone. e = 2'-O-(2-methoxyethyl) (MOE); [5mC] = 5-methylcytosine; d = 2'-deoxy (DNA)
percent inhibition of Factor XI mRNA, relative to untreated control cells reference
Numeric answer only, unit % assumed.

{"SUBSTANCE": "416924 (antisense eG*eT*eG*d[5mC]*dA*d[5mC]*dA*dG*dT*dT*dT*d[5mC]*dT*dG*dG*d[5mC]*dA*eG*eG*e[5mC]) [compound 416924]", "UNIT SPEC": "%", "REPORTED VALUE": 56}
{"SUBSTANCE": "416985 (antisense eG*e[5mC]*dA*dA*d[5mC]*d[5mC]*dG*dG*dG*dA*dT*dG*dA*dT*dG*eA*eG*eT*eG*e[5mC]) [compound 416985]", "UNIT SPEC": "%", "REPORTED VALUE": 47}

Lab note: next substance to report on.
stdin: // map 416922 (antisense eG*e[5mC]*eA*d[5mC]*dA*dG*dT*dT*dT*d[5mC]*dT*dG*dG*d[5mC]*dA*dG*dG*e[5mC]*e[5mC]*eT) [compound 416922] to recorded percent inhibition of Factor XI mRNA, relative to untreated control cells (system: human Factor XI mRNA)
stdout: 49

----------
# System: Factor XI protein
# EXPERIMENTAL DETAILS: Cynomolgus monkeys: plasma Factor XI protein ELISA (Example 30)
# Assay type: in vivo
# MEASUREMENT CONTEXT: 25 mg/kg s.c.; plasma ELISA; Day 31
In the oligonucleotide strings, read from the 5' end, every base follows the letter of its sugar. An asterisk marks phosphorothioate; unmarked linkages are phosphodiester. Other units and linkages are bracketed, terminal groups are in braces. A string of capitals states the bases alone. e = 2'-O-(2-methoxyethyl) (MOE); [5mC] = 5-methylcytosine; d = 2'-deoxy (DNA)
MEASURE: Inhibition of Factor XI protein relative to the PBS control (%)
Numeric answer only, unit % assumed.

Some substances with known Inhibition of Factor XI protein relative to the PBS control results, for comparison:
{"SUBSTANCE": "416858 (antisense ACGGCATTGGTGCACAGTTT; 5-10-5 gapmer, wing sugar chemistry not given here, further chemistry not given here) [compound 416858]", "REPORTED VALUE": 68}
{"SUBSTANCE": "449708 (antisense eA*e[5mC]*eA*dG*dT*dT*dT*d[5mC]*dT*dG*dG*e[5mC]*eA*eG) [compound 449708]", "REPORTED VALUE": 14}

Lab note: next substance to report on.
stdin: If you can, please state the reported Inhibition of Factor XI protein relative to the PBS control value of 445531 (antisense eG*eG*e[5mC]*eA*eT*dT*dG*dG*dT*dG*d[5mC]*dA*d[5mC]*eA*eG*eT*eT*eT) [compound 445531] .
stdout: 27

----------
# EXPERIMENTAL DETAILS: Tolerability in Sprague-Dawley rats: body and organ weights (Example 23)
# Format: in vivo
# MEASUREMENT CONTEXT: 50 mg/kg s.c. twice per week for 6 weeks, percentage of the body weight
MEASURE: Kidney weight (%)
Numeric answer only, unit % assumed.

stdin: If you can, please state the reported Kidney weight value of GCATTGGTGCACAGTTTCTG (antisense; all C 5-methyl, all phosphorothioate, sugars by position not given here; MOE gapmer, 5-10-5) [ISIS 412224, 5-10-5 MOE gapmer] .
stdout: 1.0

----------
# Tested on: human Factor XI mRNA
# EXPERIMENTAL DETAILS: Dose-dependent inhibition and IC50 in HepG2 cells, microwalk gapmers, electroporation (Example 16)
# Type: cell-based
# MEASUREMENT CONTEXT: electroporation, 375 nM
In the oligonucleotide strings, read from the 5' end, every base follows the letter of its sugar. An asterisk marks phosphorothioate; unmarked linkages are phosphodiester. Other units and linkages are bracketed, terminal groups are in braces. A string of capitals states the bases alone. e = 2'-O-(2-methoxyethyl) (MOE); [5mC] = 5-methylcytosine; d = 2'-deoxy (DNA)
MEASURE: percent inhibition of Factor XI mRNA (%)
Numeric answer only, unit % assumed.

{"SUBSTANCE": "416858 (antisense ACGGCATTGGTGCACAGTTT; 5-10-5 gapmer, wing sugar chemistry not given here, further chemistry not given here) [compound 416858]", "percent inhibition of Factor XI mRNA (%)": 31}

stdin: If you can, please state the reported percent inhibition of Factor XI mRNA value of 449709 (antisense eG*e[5mC]*eA*e[5mC]*dA*dG*dT*dT*dT*d[5mC]*dT*dG*dG*d[5mC]*eA*eG*eG*e[5mC]) [compound 449709] .
stdout: 52

stdin: If you can, please state the reported percent inhibition of Factor XI mRNA value of 449711 (antisense eA*e[5mC]*dA*dG*dT*dT*dT*d[5mC]*dT*dG*dG*d[5mC]*eA*eG) [compound 449711] .
stdout: 6
